Where do the numbers come from? From ChEMBL document CHEMBL4765347.

# Test system: Nrf2 (Mus musculus)
# assay.remarks: Activation of Nrf2 in mouse Hepa1c1c7 cells assessed as increase in NQO1 activity at 0.8 uM using menadione as substrate incubated for 20 mins followed by substrate addition and measured after 30 mins by spectrophotometry relative to control
# measurement.setup: filed as activator, time 50.0 min
Consider the cut-off 1. If the recorded T/C is strictly smaller, the label is Criterion met; if not, the label is Criterion not met.

Examples with answers:
>>> label_value("NS(=O)(=O)c1ccc(-n2c(S)nc3c(I)cc(I)cc3c2=O)cc1")
"Criterion not met"
>>> label_value("Cc1cccc([N+](=O)[O-])c1NC(=O)CSc1nc2c(I)cc(I)cc2c(=O)n1-c1ccc(S(N)(=O)=O)cc1")
"Criterion met"

Req: Record `Cc1ccccc1NC(=O)CSc1nc2c(I)cc(I)cc2c(=O)n1-c1ccc(S(N)(=O)=O)cc1` : is its T/C strictly below 1?
Resp: Criterion not met

---

# Test system: Nrf2 (Mus musculus)
# assay.remarks: Activation of Nrf2 in mouse Hepa1c1c7 cells assessed as increase in NQO1 activity at 1.25 uM using menadione as substrate incubated for 20 mins followed by substrate addition and measured after 30 mins by spectrophotometry relative to control
# measurement.setup: filed as activator, time 50.0 min
property.name: T/C
Number only, please.

>>> assay_result("Cc1cc([N+](=O)[O-])ccc1NC(=O)CSc1nc2c(I)cc(I)cc2c(=O)n1-c1ccc(S(N)(=O)=O)cc1")
0.99

Req: Quote T/C with test system Nrf2 (Mus musculus) for `COc1cc(NC(=O)CSc2nc3c(I)cc(I)cc3c(=O)n2-c2ccc(S(N)(=O)=O)cc2)cc(OC)c1OC`
Resp: 1.1

Req: Quote T/C with test system Nrf2 (Mus musculus) for `NS(=O)(=O)c1ccc(-n2c(SCC(=O)Nc3ccc([N+](=O)[O-])cc3[N+](=O)[O-])nc3c(I)cc(I)cc3c2=O)cc1`
Resp: 1.03

Req: Quote T/C with test system Nrf2 (Mus musculus) for `CCOc1ccc(NC(=O)CSc2nc3c(I)cc(I)cc3c(=O)n2-c2ccc(S(N)(=O)=O)cc2)cc1`
Resp: 0.99

Req: Quote T/C with test system Nrf2 (Mus musculus) for `CCc1ccccc1NC(=O)CSc1nc2c(I)cc(I)cc2c(=O)n1-c1ccc(S(N)(=O)=O)cc1`
Resp: 0.99

Req: Quote T/C with test system Nrf2 (Mus musculus) for `CCc1cccc(NC(=O)CSc2nc3c(I)cc(I)cc3c(=O)n2-c2ccc(S(N)(=O)=O)cc2)c1`
Resp: 1.05

---

# Test system: Nrf2 (Mus musculus)
# assay.remarks: Activation of Nrf2 in mouse Hepa1c1c7 cells assessed as increase in NQO1 activity at 1.6 uM using menadione as substrate incubated for 20 mins followed by substrate addition and measured after 30 mins by spectrophotometry relative to control
# measurement.setup: filed as activator, time 50.0 min
Decide by T/C: equal to or exceeding 1 means label 1, less means label 0.

>>> label_value("NS(=O)(=O)c1ccc(-n2c(S)nc3c(I)cc(I)cc3c2=O)cc1")
"label 1"
>>> label_value("Cc1cccc(NC(=O)CSc2nc3c(I)cc(I)cc3c(=O)n2-c2ccc(S(N)(=O)=O)cc2)c1")
"label 1"
>>> label_value("Cc1ccccc1NC(=O)CSc1nc2c(I)cc(I)cc2c(=O)n1-c1ccc(S(N)(=O)=O)cc1")
"label 1"
>>> label_value("NS(=O)(=O)c1ccc(-n2c(SCC(=O)Nc3ccccc3)nc3c(I)cc(I)cc3c2=O)cc1")
"label 1"

Next compound, please.
Req: Does the reported T/C for `Cc1cccc([N+](=O)[O-])c1NC(=O)CSc1nc2c(I)cc(I)cc2c(=O)n1-c1ccc(S(N)(=O)=O)cc1` fall at or above the 1 mark?
Resp: label 0
